- Test system: STZ-induced diabetic rats
- Measurement Notes: Fasting blood glucose and oral glucose tolerance test (OGTT)
- Assay type: in vivo, Sprague Dawley rats
- Stated Conditions: 120 min after glucose 2.0 g/kg

{"Compound": "CC(=O)c1cccc(S(=O)(=O)N2CC(=O)NC2=S)c1", "Target Of Assay": "STZ-induced diabetic rats", "Unit Text": "mg/dL", "OGTT (after 120 min)": 275.2}
{"Compound": "Cc1ccc(S(=O)(=O)N2CC(=O)NC2=S)cc1C(=O)O", "Target Of Assay": "STZ-induced diabetic rats", "Unit Text": "mg/dL", "OGTT (after 120 min)": 295.3}
{"Compound": "CC(=O)Nc1ccc(S(=O)(=O)N2CC(=O)NC2=S)cc1", "Target Of Assay": "STZ-induced diabetic rats", "Unit Text": "mg/dL", "OGTT (after 120 min)": 310.3}
{"Compound": "O=C1CN(S(=O)(=O)c2cccc(C(=O)O)c2)C(=S)N1", "Target Of Assay": "STZ-induced diabetic rats", "Unit Text": "mg/dL", "OGTT (after 120 min)": 288.0}
{"Compound": "COc1ccc(S(=O)(=O)N2CC(=O)NC2=S)cc1C(=O)O", "Target Of Assay": "STZ-induced diabetic rats", "Unit Text": "mg/dL", "OGTT (after 120 min)": 307.5}
{"Compound": "CN(C)C(=N)N=C(N)N [Metformin, reference compound]", "Target Of Assay": "STZ-induced diabetic rats", "Unit Text": "mg/dL", "OGTT (after 120 min)": 159.4}
{"Compound": "O=C1CN(S(=O)(=O)c2cc(C(=O)O)ccc2Cl)C(=S)N1", "Target Of Assay": "STZ-induced diabetic rats", "Unit Text": "mg/dL", "OGTT (after 120 min)": 325.0}
{"Compound": "Cc1ccc(S(=O)(=O)N2CC(=O)NC2=S)cc1", "Target Of Assay": "STZ-induced diabetic rats", "Unit Text": "mg/dL", "OGTT (after 120 min)": 320.8}
